# experiment.notes: TOR pathway RTG branch CIT2 reporter changes – S. cerevisiae, GFP fusion, multiplex flow cytometry, primary screen (AID 1870);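 further: barcoded CIT2-GFP strain pooled with four other GFP strains with rapamycin as positive control; median GFP fluorescence per well over plate mean of DMSO wells so 100% = DMSO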
# condition.details: S. cerevisiae CIT2-GFP expression, 3 h, at 10 µM, stronger effect = higher value
Hi there, I'd appreciate the recorded percent response of DMSO control for every entry that follows.
Report as a plain number; the unit % is understood.

Q: Reported percent response of DMSO control for CCC(CO)NCCNC(CC)CO (configuration not stated) : what is it?
Ans: 101

Q: percent response of DMSO control lookup needed for `O=C(O)Cc1ccc(-c2ccccc2)cc1` , thanks.
Ans: 65.4

Q: What value of percent response of DMSO control has been reported for the following compound? `CCOc1cc2c3c(c1)C(C)=CC(C)(C)N3C(=O)C2=O`
Ans: 103

Q: Look up percent response of DMSO control: `CCOC(=O)N1CCN(Cc2nc(Cc3cccc(F)c3)no2)CC1`
Ans: 100

Q: Return reported percent response of DMSO control; argument: `COc1ccc(C2=CC(=O)C=CC2=O)cc1`
Ans: 68.5

Q: Quick one: percent response of DMSO control for CN1[C@@H]2CC[C@H]1CC(OC(=O)C(CO)c1ccccc1)C2 (some centres not stated) ?
Ans: 103

Q: # lookup: percent response of DMSO control of `NNC(=O)c1ccncc1`
Ans: 93.9

Q: Reported percent response of DMSO control, compound `COc1ccc2c(C=O)cn(C)c2c1` : ____
Ans: 103

Q: Would you mind telling me what percent response of DMSO control value was observed for `CCC(=O)O[C@]1(C(=O)CCl)[C@@H](C)C[C@H]2[C@@H]3CCC4=CC(=O)C=C[C@]4(C)[C@@]3(F)[C@@H](O)C[C@@]21C` ?
Ans: 106

Q: Can you look up the measured percent response of DMSO control of `COc1ccc(O)c(C(=O)/C=C/c2cc3ccccc3o2)c1` for me?
Ans: 96.7

Q: So what does the record say about percent response of DMSO control for `CN(C)CC/C=C1\c2ccccc2Sc2ccc(Cl)cc21` ?
Ans: 103

Q: If you can, please state the reported percent response of DMSO control value of `CC(=O)c1c(C)c(C)c2n1CCn1c(C)ccc1-2` .
Ans: 93.1
